Biological target: UniProtKB Q13547
Sequence (Q13547 whole entry, species assumed): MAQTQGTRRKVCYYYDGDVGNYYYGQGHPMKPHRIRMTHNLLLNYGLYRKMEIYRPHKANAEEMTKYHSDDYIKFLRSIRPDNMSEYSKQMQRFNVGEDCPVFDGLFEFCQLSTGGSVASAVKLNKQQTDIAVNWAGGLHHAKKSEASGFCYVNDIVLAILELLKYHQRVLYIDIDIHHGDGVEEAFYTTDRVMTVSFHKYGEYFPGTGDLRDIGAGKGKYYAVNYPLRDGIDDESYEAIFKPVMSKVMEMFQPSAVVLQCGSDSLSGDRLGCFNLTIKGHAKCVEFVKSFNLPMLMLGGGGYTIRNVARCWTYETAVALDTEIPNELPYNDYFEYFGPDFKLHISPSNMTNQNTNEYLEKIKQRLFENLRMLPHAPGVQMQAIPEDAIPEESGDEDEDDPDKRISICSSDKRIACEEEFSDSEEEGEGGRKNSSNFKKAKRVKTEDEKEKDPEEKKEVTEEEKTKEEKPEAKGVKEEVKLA
Measurement label: IC50 (nM)
Kindly provide the numeric value in nM only, without the unit symbol.

> print(dat)
                                   molecule  unit.descriptor  readout.number
1  N=c1ccc2c(-c3ccccc3C(=O)NCCCCCC(=O)Nc3ccccc3N)c3ccc(N)cc3oc-2c1 [LL38, 2,2,2-trifluoroacetate]               nM            1260
2  CCCNNC(=O)c1ccc(CNC(=O)CNC(=O)c2ccccc2-c2c3ccc(=N)cc-3oc3cc(N)ccc23)cc1 [LL115, 2,2,2-trifluoroacetate]               nM              41
3  N=c1ccc2c(-c3ccccc3C(=O)NCCCCCCCC(=O)Nc3ccccc3N)c3ccc(N)cc3oc-2c1 [LL130, 2,2,2-trifluoroacetate]               nM            4730

# input Supply reported IC50 belonging to this molecule: N=c1ccc2c(-c3ccccc3C(=O)NCc3ccc(C(=O)Nc4ccccc4N)cc3)c3ccc(N)cc3oc-2c1 [LL66, 2,2,2-trifluoroacetate]
# output 4020
